- experimental.target: Recombinant human VAP-1 SSAO (Homo sapiens, UniProt Q16853)
- Sequence (Q16853 whole entry): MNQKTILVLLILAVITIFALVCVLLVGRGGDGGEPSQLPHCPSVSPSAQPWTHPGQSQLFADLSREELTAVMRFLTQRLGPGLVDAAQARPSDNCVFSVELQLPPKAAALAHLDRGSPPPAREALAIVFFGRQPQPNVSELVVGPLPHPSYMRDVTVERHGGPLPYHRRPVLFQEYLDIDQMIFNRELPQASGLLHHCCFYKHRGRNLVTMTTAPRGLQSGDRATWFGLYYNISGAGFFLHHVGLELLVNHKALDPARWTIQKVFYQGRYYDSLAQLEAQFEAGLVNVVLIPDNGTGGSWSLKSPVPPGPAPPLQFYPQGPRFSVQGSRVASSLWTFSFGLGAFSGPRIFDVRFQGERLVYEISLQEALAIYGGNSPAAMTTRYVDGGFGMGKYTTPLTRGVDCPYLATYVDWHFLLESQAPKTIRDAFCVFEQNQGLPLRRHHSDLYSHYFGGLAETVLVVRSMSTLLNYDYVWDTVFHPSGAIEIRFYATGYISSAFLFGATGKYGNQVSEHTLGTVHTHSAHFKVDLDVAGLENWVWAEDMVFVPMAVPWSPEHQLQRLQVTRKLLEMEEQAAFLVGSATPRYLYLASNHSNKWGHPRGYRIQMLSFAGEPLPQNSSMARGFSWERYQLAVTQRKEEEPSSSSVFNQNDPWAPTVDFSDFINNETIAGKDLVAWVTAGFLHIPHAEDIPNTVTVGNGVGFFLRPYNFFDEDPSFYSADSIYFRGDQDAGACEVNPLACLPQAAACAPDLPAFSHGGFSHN
- test: VAP-1 SSAO activity, coupled colourimetric assay (benzylamine substrate)
- reported.conditions: CHO cell lysate with recombinant human VAP-1 SSAO, 1 mM benzylamine, 1 h at 37° C.; read-out: VAP-1 SSAO inhibitory activity IC50
property.measured: IC50 (µM)

As a guide, the following entries are already answered.
[
  {
    "compound": "COc1ccc(SCC(O)CN(C)N)cc1OC.O=C(O)/C=C/C(=O)O (centres unmarked)",
    "IC50 [µM]": 0.21
  },
  {
    "compound": "CN(N)CC(O)COc1ccccc1.O=C(O)/C=C\\C(=O)O (centres unmarked)",
    "IC50 [µM]": 0.37
  },
  {
    "compound": "COC(CSc1ccccc1)CN(C)N.O=C(O)/C=C/C(=O)O (centres unmarked)",
    "IC50 [µM]": 0.37
  }
]

[I] COC(COc1cccc2ccccc12)CN(C)N.O=C(O)/C=C\C(=O)O (centres unmarked)
[II] CN(N)CC(O)CN(C)c1ccccc1.O=C(O)/C=C/C(=O)O (centres unmarked)
**Query** For I and II , which recorded IC50 is lower? # answer = label of selected item
**Result** II
